From: the kinase profiling compilation of Christmann-Franck et al. (2016)

target: TAOK3 (human); assay: KINOMEscan competition binding; details: compound 10.0 µM
Decide using kinase still bound, per cent of control alone. Strictly below 0.4%: True. Equal to or above 0.4%: False.

- sample.smiles: "Cc1n[nH]c2ccc(-c3cncc(OC[C@@H](N)Cc4c[nH]c5ccccc45)c3)cc12"
  system.tested: "TAOK3 (human)"
  label.class: "True"
- sample.smiles: "O=C1NC(=O)/C(=C/c2ccc3nccc(-c4ccncc4)c3c2)S1"
  system.tested: "TAOK3 (human)"
  label.class: "False"
- sample.smiles: "O=C(Nc1cccc(Nc2ncc(Br)c(NCCc3cnc[nH]3)n2)c1)N1CCCC1"
  system.tested: "TAOK3 (human)"
  label.class: "True"
- sample.smiles: "COc1cc2ncn(-c3cc(OCc4ccccc4C(F)(F)F)c(C(N)=O)s3)c2cc1OC"
  system.tested: "TAOK3 (human)"
  label.class: "False"
- sample.smiles: "CNC(=O)c1cc(Oc2ccc(NC(=O)Nc3ccc(Cl)c(C(F)(F)F)c3)cc2)ccn1"
  system.tested: "TAOK3 (human)"
  label.class: "False"
- sample.smiles: "COCC(=O)NC/C=C/c1ccc2ncnc(Nc3ccc(Oc4ccc(C)nc4)c(C)c3)c2c1"
  system.tested: "TAOK3 (human)"
  label.class: "False"

====

tested on: KIT (human), P10721 [L576P]; assay: KINOMEscan competition binding; settings: compound 10.0 µM
Sequence (P10721 whole entry L576P, looked up): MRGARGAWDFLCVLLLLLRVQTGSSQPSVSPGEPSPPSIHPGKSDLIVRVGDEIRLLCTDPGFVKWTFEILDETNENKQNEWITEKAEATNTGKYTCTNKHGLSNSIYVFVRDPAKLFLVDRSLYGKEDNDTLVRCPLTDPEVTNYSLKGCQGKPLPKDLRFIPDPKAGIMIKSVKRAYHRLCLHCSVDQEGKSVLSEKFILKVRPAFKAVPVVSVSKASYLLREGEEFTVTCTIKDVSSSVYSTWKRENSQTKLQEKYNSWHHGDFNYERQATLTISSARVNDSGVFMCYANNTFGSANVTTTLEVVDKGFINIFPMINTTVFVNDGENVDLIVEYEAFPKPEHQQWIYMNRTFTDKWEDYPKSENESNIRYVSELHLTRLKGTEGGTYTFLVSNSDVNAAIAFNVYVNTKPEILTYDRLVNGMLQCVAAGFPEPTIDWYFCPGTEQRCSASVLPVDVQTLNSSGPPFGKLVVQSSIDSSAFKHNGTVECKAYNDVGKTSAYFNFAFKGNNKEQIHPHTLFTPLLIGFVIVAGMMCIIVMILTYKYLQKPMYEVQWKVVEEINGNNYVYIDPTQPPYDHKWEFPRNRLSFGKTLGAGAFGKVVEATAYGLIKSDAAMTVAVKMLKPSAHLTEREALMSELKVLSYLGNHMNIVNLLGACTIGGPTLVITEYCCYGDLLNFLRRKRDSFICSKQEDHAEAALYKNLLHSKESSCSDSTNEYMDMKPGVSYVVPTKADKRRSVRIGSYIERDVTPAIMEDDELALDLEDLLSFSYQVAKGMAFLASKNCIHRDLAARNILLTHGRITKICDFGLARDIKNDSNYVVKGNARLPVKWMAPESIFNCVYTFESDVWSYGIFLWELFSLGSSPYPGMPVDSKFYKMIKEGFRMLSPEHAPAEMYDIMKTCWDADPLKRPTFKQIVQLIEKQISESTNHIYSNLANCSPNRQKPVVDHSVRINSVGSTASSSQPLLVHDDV
# kinase still bound, per cent of control per entry

- sample.smiles: "O=C(NC1CC1)c1cccc(-c2ccc3c(NC(=O)C4CC4)n[nH]c3c2)c1"
  kinase still bound, per cent of control [%]: 51
- sample.smiles: "CC(=O)c1c(C)c2cnc(Nc3ccc(N4CCNCC4)cn3)nc2n(C2CCCC2)c1=O"
  kinase still bound, per cent of control [%]: 24
- sample.smiles: "CS(=O)(=O)N1CCN(Cc2cc3nc(-c4cccc5[nH]ncc45)nc(N4CCOCC4)c3s2)CC1"
  kinase still bound, per cent of control [%]: 100
- sample.smiles: "CCN1CCN(Cc2ccc(NC(=O)c3ccc(C)c(/C=C/c4cnc5[nH]ccc5c4OC)c3)cc2C(F)(F)F)CC1"
  kinase still bound, per cent of control [%]: 0
- sample.smiles: "C[C@@H](Oc1cc(-n2cnc3ccc(CN4CCN(C)CC4)cc32)sc1C(N)=O)c1ccccc1C(F)(F)F"
  kinase still bound, per cent of control [%]: 54

====

target: PIP5K1A (human) (UniProt Q99755); test: KINOMEscan competition binding; settings: compound 10.0 µM
Sequence (Q99755 whole entry, looked up): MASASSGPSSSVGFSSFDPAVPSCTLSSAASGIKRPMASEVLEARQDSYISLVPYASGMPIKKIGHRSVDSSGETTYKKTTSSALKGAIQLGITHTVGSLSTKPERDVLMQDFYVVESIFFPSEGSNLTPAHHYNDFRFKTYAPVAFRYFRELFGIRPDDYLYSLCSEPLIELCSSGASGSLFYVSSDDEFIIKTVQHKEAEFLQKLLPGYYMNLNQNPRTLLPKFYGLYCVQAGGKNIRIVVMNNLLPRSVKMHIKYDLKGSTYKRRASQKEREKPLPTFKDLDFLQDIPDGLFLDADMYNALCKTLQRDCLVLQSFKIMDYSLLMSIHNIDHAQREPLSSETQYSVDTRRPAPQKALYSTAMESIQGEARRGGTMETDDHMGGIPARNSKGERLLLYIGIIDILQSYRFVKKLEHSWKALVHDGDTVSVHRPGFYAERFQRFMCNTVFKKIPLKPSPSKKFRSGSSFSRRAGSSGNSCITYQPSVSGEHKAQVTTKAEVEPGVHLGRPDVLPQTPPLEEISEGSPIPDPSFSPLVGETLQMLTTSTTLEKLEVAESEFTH
Flag rule - kinase still bound, per cent of control less than 30% flags 1; the remaining entries get 0.

- sample.smiles: "C=CC(=O)Nc1cc(-n2c(=O)ccc3cnc4ccc(-c5cn[nH]c5)cc4c32)ccc1C"
  label.class: 0
- sample.smiles: "CCN(CC)CCCCNc1ncc2c(n1)N(C)C(=O)N(c1c(Cl)c(OC)cc(OC)c1Cl)C2"
  label.class: 0
- sample.smiles: "CN(C)C/C=C/C(=O)Nc1ccc(C(=O)Nc2cccc(Nc3nccc(-c4cccnc4)n3)c2)cc1"
  label.class: 0
- sample.smiles: "O=C1NC(=O)/C(=C/c2ccc3nccc(-c4ccncc4)c3c2)S1"
  label.class: 0
- sample.smiles: "CNC(=O)c1ccc(Nc2cc(Nc3ccccc3S(=O)(=O)C(C)C)c3cc[nH]c3n2)nc1"
  label.class: 1
- sample.smiles: "O=C(Nc1cccc(Nc2ncc(Br)c(NCCc3cnc[nH]3)n2)c1)N1CCCC1"
  label.class: 1
- sample.smiles: "COc1cc(N2CCN(C)CC2)ccc1Nc1ncc2c(n1)N(C)c1ccccc1C(=O)N2C"
  label.class: 0
- sample.smiles: "C[C@@H](Oc1cc(-c2cnn(C3CCNCC3)c2)cnc1N)c1c(Cl)ccc(F)c1Cl"
  label.class: 1
- sample.smiles: "NC(=O)Nc1cc(-c2cccc(F)c2)sc1C(=O)N[C@@H]1CCCNC1"
  label.class: 1
- sample.smiles: "N#CCNC(=O)c1ccc(-c2ccnc(Nc3ccc(N4CCOCC4)cc3)n2)cc1"
  label.class: 0
- sample.smiles: "CS(=O)(=O)N1CCN(Cc2cc3nc(-c4cccc5[nH]ncc45)nc(N4CCOCC4)c3s2)CC1"
  label.class: 0
- sample.smiles: "COc1cc2ncnc(-n3nc(-c4ccccn4)nc3N)c2cc1OC"
  label.class: 1
- sample.smiles: "CCN(CC)CCCCNc1ncc2cc(-c3cc(OC)cc(OC)c3)c(NC(=O)NC(C)(C)C)nc2n1"
  label.class: 0
